This section presents compounds with their documented TGI values.
Tested on: HCT-116 colon
Assay: NCI tumour cell line growth inhibition, 48 h

Please review the following examples before continuing.
INSERT INTO assay_data (compound, test_result) VALUES
  ('C/C(=N/Nc1nc2ccccc2n1C)c1ccccn1', '14.8 µM'),
  ('N#Cc1nc2c(S(=O)(=O)c3ccccc3)c(N)n(Cc3cccnc3)c2nc1C#N', '> 100 µM'),
  ('C=C(C)C1Cc2c(cc(O)c3c(=O)c4c(oc23)C(O)Oc2cc(OC)c(OC)cc2-4)O1 (stereo not drawn)', '> 10 µM'),
  ('COc1ccc(C[C@H](N)C(=O)NC2C(CO)OC(n3cnc4c(N(C)C)ncnc43)C2O)cc1 (stereo partly drawn)', '0.293 µM'),
  ('O/C(=C\c1nc2ccccc2nc1/C=C(\O)c1ccc(Cl)cc1)c1ccccc1', '> 100 µM');

For the compound shown here, O=C1c2ccccc2NC(=O)C2C1C(c1ccccc1)CC2(O)c1ccccc1 (stereo not drawn) , give the reported TGI.
37.8 µM

For the compound shown here, CN(C(=O)C12C3C4C1C1C4(C(=O)C45C6C7C4C4C5C6C74C)C3C12C)C(C)(C)C (stereo not drawn) , give the reported TGI.
> 100 µM

For the compound shown here, CC1(CO)OC(n2cc(C(=O)NC(=O)OCc3ccccc3)c(=O)[nH]c2=O)CC1O (stereo not drawn) , give the reported TGI.
> 100 µM

---

This section presents compounds with their documented TGI values.
Tested on: DU-145 prostate
Assay: NCI tumour cell line growth inhibition, 48 h
The response must be a number in µM with no trailing unit.

INSERT INTO measurements (smiles_representation, unit_annotation, test_result) VALUES
  ('Nc1c2c(=O)[nH]c(=O)c2c(N)c2c(=O)c3ccccc3c(=O)c12', 'µM', 3.95);

Shift focus to the following entry.
For the compound shown here, Cc1cc(S(N)(=O)=O)c(S/C(CC(C)C)=N\Nc2ccc([N+](=O)[O-])cc2)cc1Cl , give the reported TGI.
28

---

This section presents compounds with their documented log10 of TGI values.
Test system: COLO 205 colon
Experiment: NCI tumour cell line growth inhibition, 48 h
Transform log10 | Measure TGI | Unit µM

For the compound shown here, O=C1CC(O)c2c(Br)sc(Br)c21 (stereo unspecified) , give the reported log10 of TGI.
1.49

For the compound shown here, CCOC(=O)N1CCc2cc(OC)c(OC)c3c2c1cc1cc(OC)c(OC)cc13 , give the reported log10 of TGI.
0.96

For the compound shown here, COC(=O)C1=C(C(=O)ON)C2C=CC1(C(Cc1ccccc1)Nc1ccccc1)O2 (stereo unspecified) , give the reported log10 of TGI.
0.52

For the compound shown here, NC(N)=N/N=C\c1cccc(OCc2ccccc2)c1 , give the reported log10 of TGI.
0.53

For the compound shown here, COC(=O)C(=O)OC1(C(C)=O)CC2(c3ccccc3)OC1(c1ccccc1)c1ccccc12 (stereo unspecified) , give the reported log10 of TGI.
1.47

For the compound shown here, C=C1C(=O)O[C@H]2[C@H]1CC/C(Cn1cc(-c3cc(C(F)(F)F)cc(C(F)(F)F)c3)nn1)=C\CC[C@@]1(C)O[C@@H]21 , give the reported log10 of TGI.
-0.44

For the compound shown here, Nc1c2c(=O)[nH]c(=O)c2c(N)c2c(=O)c3ccccc3c(=O)c12 , give the reported log10 of TGI.
0.27

For the compound shown here, Cc1cc(S(N)(=O)=O)c(S/C(CC(C)C)=N\Nc2ccc([N+](=O)[O-])cc2)cc1Cl , give the reported log10 of TGI.
1.32

For the compound shown here, CCOc1ccccc1NC(=O)CC1SC(=Nc2ccc([N+](=O)[O-])cc2)NC1=O (stereo unspecified) , give the reported log10 of TGI.
1.55

---

Test system: T-47D breast
Test: NCI tumour cell line growth inhibition, 48 h; in the data active means GI50 below about 0.43 µM; inactive means the rest
Select the correct class. Options are T (active), F (inactive) and nothing else.

Hi, sorry to bother you, what did the test record for O=C(Nc1cccc(Cl)c1)c1ccc(NC2=C(Cl)C(=O)N(Cc3ccccc3)C2=O)cc1 ?
F

Hi, sorry to bother you, what did the test record for COC1CC2CCC(C)C(O)(O2)C(=O)C(=O)N2CCCCC2C(=O)OC(C(C)CC2CCC(O)C(OC)C2)CC(=O)C(C)C=C(C)C(O)C(OC)C(=O)C(C)CC(C)/C=C/C=C/C=C1C (stereo not drawn) ?
T

Hi, sorry to bother you, what did the test record for Nc1c(Br)cc(Br)c2c1[nH]c(=O)c1ccccc12 ?
F

---

Test system: NCI-H460 lung
Test: NCI tumour cell line growth inhibition, 48 h
This section presents compounds with their documented TGI values.
The response must be a number in µM with no trailing unit.

INSERT INTO results (smiles_representation, test_result) VALUES
  ('COc1cc2c3c(n(CCCN)c(=O)c2cc1OC)-c1cc2c(cc1/C3=C\CCN)OCO2', 7.53);

For the compound shown here, Cc1ccc(-n2c3c(c4c(CN(C)C)c(O)ccc42)CCc2ccccc2C3=O)cc1 , give the reported TGI.
41.9

---

System: MOLT-4 leukemia
Assay: NCI tumour cell line growth inhibition, 48 h
This section presents molecules with their documented TGI values.

INSERT INTO measurements (molecule, value_kind, test_result) VALUES
  ('COC1CC(OC2C(C)OC(OC3C(C)OC(OC4C(O)CC(O[C@H]5CC[C@@]6(C)C(=CC[C@]7(O)[C@@H]6C[C@@H](OC(=O)/C=C/c6ccccc6)[C@@]6(C)[C@]7(O)CC[C@@]6(O)C(C)=O)C5)OC4C)CC3OC)CC2OC)OC(C)C1O (some centres not stated)', 'TGI', '> 6.25 µM');

For the molecule shown here, CC(=O)[CH-]C(=O)c1ccccc1.CC(=O)[CH-]C(=O)c1ccccc1.CC(C)CCCC(C)[C@H]1CCC2[C@@H]3CC=C4C[C@@H]([O-])CC[C@]4(C)C3CC[C@@]21C.CC[O-].[Ti+4] (some centres not stated) , give the reported TGI.
63.1 µM

For the molecule shown here, CCOC(=O)N1CCc2cc(OC)c(OC)c3c2c1cc1cc(OC)c(OC)cc13 , give the reported TGI.
> 100 µM

For the molecule shown here, O=[N+]([O-])c1nccn1CC(O)CN1CC1 (configuration not stated) , give the reported TGI.
> 100 µM

For the molecule shown here, O=S1CCS(=O)CCS(=O)CC1 (configuration not stated) , give the reported TGI.
> 100 µM

For the molecule shown here, Oc1cc(O)c2c(-c3c(O)c(-c4ccc(O)c(O)c4)[o+]c4cc(O)cc(O)c34)c(O)c(-c3ccc(O)c(O)c3)[o+]c2c1 , give the reported TGI.
> 100 µM

For the molecule shown here, O=C1NC(O)C(c2c[nH]c3ccccc23)=C1c1c[nH]c2ccccc12 (configuration not stated) , give the reported TGI.
> 25 µM

---

Test system: MDA-MB-435
Select the correct class. Options are 1.0 = active, 0.0 = inactive and nothing else.

Known results for compounds:
INSERT INTO measurements (compound, qualitative_label) VALUES
  ('CC(C)[C@H](CO)Nc1nc(Nc2ccc(C(=O)NCCNS(=O)(=O)c3cccc4c(N(C)C)cccc34)c(Cl)c2)c2ncn(C(C)C)c2n1', 0.0),
  ('N#Cc1nc2c(S(=O)(=O)c3ccccc3)c(N)n(Cc3cccnc3)c2nc1C#N', 0.0),
  ('O=c1c2ccccc2n(C[C@H]2CO2)c2ccccc12', 0.0);

Query compound follows.
Hi, sorry to bother you, what did the test record for COc1cc(-c2nn(-c3cccc(NC(=O)Nc4cc(C(F)(F)F)cc(C(F)(F)F)c4)c3)cc2-c2ccncc2)ccc1Cl ?
0.0

---

System: UACC-257 melanoma
Test: NCI tumour cell line growth inhibition, 48 h
value-kind: TGI

INSERT INTO results (compound, study_system, test_result) VALUES
  ('COc1cc(/C=C2\C[C@H]3[C@@H]4CC=C5C=C(N6CCCC6)CC[C@]5(C)[C@H]4CC[C@]3(C)C2=O)cc(OC)c1OC', 'UACC-257 melanoma', '9.48 µM'),
  ('Cc1ccc2ccccc2c1NC1=NCCO1', 'UACC-257 melanoma', '> 100 µM'),
  ('CC(C)(C)c1nn(-c2ccccc2)c2c1C(=O)CSC(c1ccccc1Cl)N2 (stereo not given)', 'UACC-257 melanoma', '14.7 µM'),
  ('CC(=O)[CH-]C(=O)c1ccccc1.CC(=O)[CH-]C(=O)c1ccccc1.[Eu+3].[OH-].[OH3+]', 'UACC-257 melanoma', '> 100 µM');

For the compound shown here, CN(C)c1ccc(/C=c2/c3ccccc3n3nc4ccccc4c23)cc1 , give the reported TGI.
> 100 µM

---

Tested on: MCF7 breast
Experiment: NCI tumour cell line growth inhibition, 48 h; in the data active means GI50 below about 0.43 µM; inactive means the rest
Select the correct class. Options are True for active, False for inactive and nothing else.

Known results for molecules:
INSERT INTO assay_data (molecule, qualitative_label) VALUES
  ('COC(=O)C1=C(C(=O)ON)C2C=CC1(C(Cc1ccccc1)Nc1ccccc1)O2 (stereo not given)', 'False'),
  ('C=C(CN1C(=O)[C@H]2CCCN2C(=O)c2ccccc21)c1ccc(C(=O)O)cc1', 'False'),
  ('N#Cc1nc2c(S(=O)(=O)c3ccccc3)c(N)n(Cc3cccnc3)c2nc1C#N', 'False'),
  ('O=C1c2cc3c(cc2-c2c1c1ccc(Cl)cc1c(=O)n2CCCNCCO)OCO3', 'True'),
  ('Cn1c(/C=C(\C#N)c2ccccc2)nc2c(N3CCOCC3)nc(Cl)nc21', 'False');

Hi, sorry to bother you, what did the test record for Ic1ccccc1-c1ccccc1 ?
False

Hi, sorry to bother you, what did the test record for C/C(=N\Nc1cc(C)c2cc(C)ccc2n1)c1ccccn1 ?
True

Hi, sorry to bother you, what did the test record for Cc1cc(S(N)(=O)=O)c(S/C(CC(C)C)=N\Nc2ccc([N+](=O)[O-])cc2)cc1Cl ?
False

Hi, sorry to bother you, what did the test record for C/C(=N/Nc1nc2ccccc2n1C)c1ccccn1 ?
True

Hi, sorry to bother you, what did the test record for CCCc1cc2c(=O)c(C(=O)OC)c[nH]c2cc1N(CC)CC ?
False

Hi, sorry to bother you, what did the test record for O=C1CCCCCCCC/C=C\CC(c2ccco2)O1 (stereo not given) ?
False

Hi, sorry to bother you, what did the test record for N[C@@H]1CCCC[C@H]1N.O=C([O-])C(=O)[O-].[Pt+4] ?
True

Hi, sorry to bother you, what did the test record for C=C1C(=O)O[C@H]2[C@H]1CC/C(Cn1cc(-c3cc(C(F)(F)F)cc(C(F)(F)F)c3)nn1)=C\CC[C@@]1(C)O[C@@H]21 ?
True

Hi, sorry to bother you, what did the test record for CC(C)[C@H](CO)Nc1nc(Nc2ccc(C(=O)NCCNS(=O)(=O)c3cccc4c(N(C)C)cccc34)c(Cl)c2)c2ncn(C(C)C)c2n1 ?
False

Hi, sorry to bother you, what did the test record for O=C1C(Cl)=C(Nc2cccc(Cl)c2)C(=O)N1Cc1ccccc1Cl ?
False
